Target: T1, hFcRn with a His-tag (human, UniProt P55899 24-297; P61769 21-119)
T1 construct: It may be the same product as m1; also called huFcRn (His tagged molecule, BPS); not shown: His-tag
T1 sequence (P55899 24-297 limits assumed, chain 1 of 2): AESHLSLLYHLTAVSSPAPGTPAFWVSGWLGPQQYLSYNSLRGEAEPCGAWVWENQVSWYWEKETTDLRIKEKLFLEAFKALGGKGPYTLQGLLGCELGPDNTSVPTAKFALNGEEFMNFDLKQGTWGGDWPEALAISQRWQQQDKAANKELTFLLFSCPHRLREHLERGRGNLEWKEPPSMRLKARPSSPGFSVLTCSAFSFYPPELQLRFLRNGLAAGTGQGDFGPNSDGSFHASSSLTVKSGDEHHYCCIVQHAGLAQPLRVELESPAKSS
T1 sequence (P61769 21-119 limits assumed, chain 2 of 2): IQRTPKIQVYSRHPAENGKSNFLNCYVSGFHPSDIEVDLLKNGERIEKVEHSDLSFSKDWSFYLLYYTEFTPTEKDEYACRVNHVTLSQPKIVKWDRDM
Test: BLI (Octet); ratio of KD at pH 7.4 to KD at pH 6.0
Listed here are binders together with their documented pH 7.4/pH 6.0 (KD ratio).

binder	pH 7.4/pH 6.0 (KD ratio)
FcRn-109 (designed binder, AFFIMER (stefin A variant)) MIPRGLSEAKPATPEIQEIVDKVKPQLEEKTNETYGKLEAVQYKTQVLARPHNRDSHRSTNYYIKVRAGDNKYMHLKVFNGPDRKHRKHWHADRVLTGYQVDKNKDDELTGFHHHHHH	6.6
FcRn-88 (designed binder, AFFIMER (stefin A variant)) MIPRGLSEAKPATPEIQEIVDKVKPQLEEKTNETYGKLEAVQYKTQVLAHHTKHHSRWSTNYYIKVRAGDNKYMHLKVFNGPVNHISHAPIADRVLTGYQVDKNKDDELTGFHHHHHH	4.4
